Measured %Inh accompanies every entry in the list below.
- System: JAK1(JH2domain-pseudokinase);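 also: KINOMEscan kinase panel screen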
- run parameters: concentration: 1 μM,replicates: in singlicate; n = 1
metric name: %Inh (%)

{"columns": ["compound", "metric name", "uom", "endpoint value"],
 "data": [
  ["C[C@@H](Oc1cc(-c2cnn(C3CCNCC3)c2)cnc1N)c1c(Cl)ccc(F)c1Cl", "%Inh", "%", 68],
  ["CC(C)N1C(=O)Cc2cc(Nc3ncc(C(F)(F)F)c(NCc4cccc(S(C)(=O)=O)c4)n3)ccc21", "%Inh", "%", 88],
  ["CCn1c(-c2nonc2N)nc2c(C#CC(C)(C)O)nc(OCCN)cc21.Cl.Cl [GSK902056]", "%Inh", "%", 0],
  ["O=C(NCCNc1ccnc(NCc2ccc(F)cc2)n1)c1cc2ccccc2s1 [GSK1379944]", "%Inh", "%", 0],
  ["Nc1nc(Nc2ccccc2)cc(-c2ccc3c(N)n[nH]c3c2)n1 [GSK2225749]", "%Inh", "%", 43],
  ["Cl.Cl.NC[C@H](CC1CCCCC1)NC(=O)c1cc(Br)c(-c2ccnc3[nH]ccc23)s1 [GSK1581427]", "%Inh", "%", 0],
  ["Cc1cc(C(=O)Nc2ccc(Oc3ccc4nc(NC(=O)C5CC5)cn4n3)cc2)nn1-c1ccccc1", "%Inh", "%", 4],
  ["Cl.Oc1cc(-c2nc(-c3ccccc3)[nH]c2-c2ccncc2)ccc1Cl [SB-386023]", "%Inh", "%", 11]
]}
